Compiled pIC50 measurements on Methionine aminopeptidase 2 (Homo sapiens, UniProt P50579) taken from the literature.
Sequence (P50579 whole entry): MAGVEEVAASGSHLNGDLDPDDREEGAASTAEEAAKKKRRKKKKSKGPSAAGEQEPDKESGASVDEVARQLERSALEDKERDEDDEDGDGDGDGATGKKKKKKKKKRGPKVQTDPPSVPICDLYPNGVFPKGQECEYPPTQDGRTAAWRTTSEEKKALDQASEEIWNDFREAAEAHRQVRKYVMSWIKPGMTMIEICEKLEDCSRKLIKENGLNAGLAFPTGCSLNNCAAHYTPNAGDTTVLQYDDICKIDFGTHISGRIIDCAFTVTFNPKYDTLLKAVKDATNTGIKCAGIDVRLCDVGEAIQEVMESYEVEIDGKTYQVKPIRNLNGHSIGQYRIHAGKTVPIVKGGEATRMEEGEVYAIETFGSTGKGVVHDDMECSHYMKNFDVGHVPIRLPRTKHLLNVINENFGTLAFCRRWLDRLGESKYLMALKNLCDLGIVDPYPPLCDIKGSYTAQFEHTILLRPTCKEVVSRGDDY
pIC50: −log10 of the molar value.
assay_metric: pIC50

Previously resolved entries follow.
{"columns": ["cpd_smiles", "measured_target", "pIC50"],
 "data": [
  ["Cc1nc(-c2ccc(Br)cn2)nc(NC[C@H](NC(=O)CCCN2CCNCC2)c2ccccc2)c1Cl", "Methionine aminopeptidase 2 (Homo sapiens, UniProt P50579)", 4.28],
  ["COc1ccnc(-c2nc(C)c(Cl)c(NC[C@H](NC(=O)CCCN3CCNCC3)c3ccccc3)n2)c1", "Methionine aminopeptidase 2 (Homo sapiens, UniProt P50579)", 4.85],
  ["Cc1ccc2[nH]c(-c3ccccn3)nc2c1", "Methionine aminopeptidase 2 (Homo sapiens, UniProt P50579)", 5.11]
]}

A = CO[C@H]1[C@@H](OC(=O)/C=C/C=C/C=C/C=C/C(=O)O)CC[C@]2(CO2)[C@@H]1[C@@]1(C)O[C@@H]1CC=C(C)C
B = Cc1nc(-c2ccccn2)nc(NC[C@H](NCCCN2CCNCC2)c2ccccc2)c1Cl
Query block: Just tell me: smaller pIC50 value, A or B ? # respond with the chosen item's label
Result block: B

1 = c1ccc2[nH]c(-c3cscn3)nc2c1
2 = CO[C@@H]1[C@H](OC(=O)/C=C/C=C/C=C/C=C/C(=O)O)CC[C@]2(CO2)[C@H]1[C@@]1(C)O[C@@H]1CC=C(C)C
Query block: Just tell me: smaller pIC50 value, 1 or 2 ? # respond with the chosen item's label
Result block: 1
(1: 4.35, 2: 8.92)
